target entity: UniProt:P29274
Sequence (P29274 whole entry): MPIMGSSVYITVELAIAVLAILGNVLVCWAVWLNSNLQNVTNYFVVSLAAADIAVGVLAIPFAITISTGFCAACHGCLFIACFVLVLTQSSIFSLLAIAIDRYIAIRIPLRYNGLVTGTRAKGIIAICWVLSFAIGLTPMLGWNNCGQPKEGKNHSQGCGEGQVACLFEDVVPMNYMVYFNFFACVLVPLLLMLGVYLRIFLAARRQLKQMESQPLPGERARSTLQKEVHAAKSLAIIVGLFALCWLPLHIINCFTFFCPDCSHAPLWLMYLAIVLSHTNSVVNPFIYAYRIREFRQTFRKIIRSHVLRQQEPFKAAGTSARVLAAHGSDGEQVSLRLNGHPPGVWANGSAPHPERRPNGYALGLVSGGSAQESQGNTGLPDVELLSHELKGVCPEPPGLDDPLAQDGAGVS
method notes: Adenosine receptor activity assay (Table 1), A2A activity
Assay type: biochemical
measurement setup: read-out: Ave A2A cAMP IC50
pIC50: −log10 of the molar value.
Please respond with reported pIC50 for every item in the list.

- compound: "Cc1cc2nc(N[C@@H](C)c3cncc(F)c3)nc(C(=O)NC[C@@H](C)O)c2s1"
  pIC50: "7.00 to 7.30"
- compound: "C[C@H](Nc1nc(C(=O)NCCC2CCNC2)c2sccc2n1)c1cncc(F)c1 (some centres unmarked)"
  pIC50: "< 6.30"
- compound: "O=C(NC1CC(O)C1)c1nc(NCc2cncc(F)c2)nc2ccsc12 (centres unmarked) [Example Z183]"
  pIC50: "6.30 to 7.00"
- compound: "CC(Nc1nc(C(=O)N2CC[C@@H](F)C2)c2sccc2n1)c1cccnc1 (some centres unmarked)"
  pIC50: "6.30 to 7.00"
- compound: "C[C@H](Nc1nc(C(=O)NCc2ccc(OCC3CC3)nc2)c2sccc2n1)c1ccccn1"
  pIC50: "7.00 to 7.30"

Below is a list of compounds. For each, state its recorded pIC50.
1. CNc1cc2nc(NCc3ccccn3)nc(C(=O)N3CCCC3)c2s1
2. Cc1cc2nc(N[C@@H](C)c3cncc(F)c3)nc(C(=O)NC[C@H](C)O)c2s1
3. Cc1cncc(CNc2nc(C(=O)N3CC[C@H](O)C3)c3sccc3n2)c1

1: < 6.30; 2: 6.30 to 7.00; 3: < 6.30

Below is a list of compounds. For each, state its recorded pIC50.
1. COc1ccc([C@H](C)Nc2nc(C(=O)NCc3cccnc3)c3sccc3n2)cc1
2. C[C@H](NC(=O)c1nc(N[C@@H](C)c2ccccc2)nc2ccsc12)c1ccccc1
3. COCC1CN(C(=O)c2nc(N[C@@H](C)c3ccccn3)nc3c(C)csc23)C1

7.30 to 8.00
6.30 to 7.00
7.30 to 8.00
